Test system: DU-145 prostate
Protocol notes: NCI-60 one-dose screen, 48 h
Reported conditions: 10 µM unless noted
Compounds without any hit were thinned out: in the full panel of roughly 83,000, 20% have a hit. Active and inactive are the calls of the source. The calls were made as follows: active = growth percent below 10; inactive = the rest.
Respond using exactly one of the listed classes: 1 (active), 0 (inactive)

// known answers, use as guide
# input // param item: "CCN1CCN(CC(=O)Nc2nc3ccc(NCc4ccc(Cl)cc4)cc3s2)CC1" ; yields the recorded call
# output 0

# input // param item: "c1ccc(-c2nc(N3CCCNCC3)c3nc(-c4ccccc4)oc3n2)cc1" ; yields the recorded call
# output 1

# input // param item: "CN(C)C(=S)Sc1ccc([N+](=O)[O-])cc1[N+](=O)[O-]" ; yields the recorded call
# output 0

---
# input // param item: "C=C(C)[C@@H]1CC[C@]2(c3ncc(C)o3)CC[C@]3(C)[C@H](CC[C@@H]4[C@@](C)(CCC#N)[C@H](C(=C)C)CC[C@]43C)[C@@H]12" ; yields the recorded call
# output 1

# input // param item: "CCOC(=O)/C(C#N)=C(\C)CCc1ccccc1" ; yields the recorded call
# output 0

Values from PubChem BioAssay (NCI)
